- Test system: CD2F1 mice, L1210 leukemia ip, survival T/C
- METHOD_SUMMARY: NCI In Vivo Anticancer Drug Screen. Data for tumor model L1210 Leukemia (intraperitoneal) in CD2F1 (CDF1) mice
- ASSAY_CONTEXT: endpoint: mean survival time; dose: 100.0 mg/kg/injection; schedule: Q01DX009 (ip); vehicle: saline with Tween-80; higher = longer survival
Toxic doses and inconclusive results are not listed.
Reported T/C values follow for various compounds

Here's what some known entries look like.
COMPOUND: O=C(O)C1CC2C=CC1C2 (stereo not drawn)
TARGET_SYSTEM: CD2F1 mice, L1210 leukemia ip, survival T/C
T/C: 94 % of control

COMPOUND: COc1ccc2cc(CC(=O)c3ccccc3)ccc2c1
TARGET_SYSTEM: CD2F1 mice, L1210 leukemia ip, survival T/C
T/C: 100 % of control

COMPOUND: COc1ccc(/C(C)=N/N=C\c2cc(OC)c(OC)c(OC)c2)cc1
TARGET_SYSTEM: CD2F1 mice, L1210 leukemia ip, survival T/C
T/C: 91 % of control

COMPOUND: CN(C)C(=O)c1ccc(Cl)c(Cl)c1
TARGET_SYSTEM: CD2F1 mice, L1210 leukemia ip, survival T/C
T/C: 102 % of control

COMPOUND: COc1cc2ccc(CC(=S)N3CCOCC3)cc2cc1OC
TARGET_SYSTEM: CD2F1 mice, L1210 leukemia ip, survival T/C
T/C: 98 % of control

COMPOUND: COC(=O)C(C(=O)OC)C(Br)(C(=O)OC)C(=O)OC
TARGET_SYSTEM: CD2F1 mice, L1210 leukemia ip, survival T/C
T/C: 98 % of control

// Cc1ccc(S(=O)(=O)N/N=C2\CC3CCC2(C)C3(C)C)cc1 (stereo not drawn) : T/C value = 88 % of control

Notebook: COC(c1ccccc1)C(C)O (stereo not drawn) , T/C read as 100 % of control
